- System: HCV genotype 1b replicon
- Method notes: HCV replicon assay (HCV 1b_Huh-Luc/Neo-ET cell line, luciferase readout)
- Type: cell-based
- Test context: Hepatitis C virus; bicistronic genotype 1b replicon in Huh 7 cells, 72 h incubation, luciferase enzyme activity; read-out: Inhibition of HCV genotype 1b
pEC50: −log10 of the molar value.
Property measured: pEC50

Compound	pEC50
CC(C)[C@@H](NC(=O)OC(C)(C)C)C(=O)N1CCOC[C@H]1C(=O)Nc1ccc(-c2ccc(-c3cnc([C@@H]4CCCN4C(=O)[C@H](NC(=O)OC(C)(C)C)C(C)C)[nH]3)cc2)cc1 [Compound 13]	6.00 to 8.00
COC(=O)N[C@@H](C(=O)N1CCC[C@H]1C(=O)Nc1ccc(-c2ccc3nc([C@@H]4CCCN4C(=O)[C@H](NC(=O)OC)c4ccccc4)[nH]c3c2)cc1)c1ccccc1 [Compound 74]	> 9.00
CC(C)(C)OC(=O)N1CCC[C@H]1C(=O)Nc1ccc(-c2ccc(-c3cnc([C@@H]4COCCN4C(=O)OC(C)(C)C)[nH]3)cc2)cc1 [Compound 5]	< 6.00
CN1CCN(C(=O)N[C@@H](C(=O)N2CCC[C@H]2CNC(=O)c2ccc(-c3ccc(-c4cnc([C@@H]5CCCN5C(=O)[C@H](NC(=O)N5CCN(C)CC5)c5ccccc5)[nH]4)cc3)cc2)c2ccccc2)CC1 [Compound 57]	8.00 to 9.00

Next, consider the following compound.
Request: pEC50, test system HCV genotype 1b replicon, entry CC(C)[C@@H](NC(=O)OC(C)(C)C)C(=O)N1CCC[C@H]1C(=O)Nc1ccc(-c2ccc(-c3cnc([C@@H]4COCCN4C(=O)[C@H](NC(=O)OC(C)(C)C)C(C)C)[nH]3)cc2)cc1 [Compound 10]
Result: 6.00 to 8.00
